Biological target: sGC α1/β1 heterodimer stably expressed in CHO-K1 cells (CHO-K1/sGC) (Homo sapiens, UniProt Q02108+Q02153)
Construct: expressed in transfected cells
Sequence (Q02108 whole entry): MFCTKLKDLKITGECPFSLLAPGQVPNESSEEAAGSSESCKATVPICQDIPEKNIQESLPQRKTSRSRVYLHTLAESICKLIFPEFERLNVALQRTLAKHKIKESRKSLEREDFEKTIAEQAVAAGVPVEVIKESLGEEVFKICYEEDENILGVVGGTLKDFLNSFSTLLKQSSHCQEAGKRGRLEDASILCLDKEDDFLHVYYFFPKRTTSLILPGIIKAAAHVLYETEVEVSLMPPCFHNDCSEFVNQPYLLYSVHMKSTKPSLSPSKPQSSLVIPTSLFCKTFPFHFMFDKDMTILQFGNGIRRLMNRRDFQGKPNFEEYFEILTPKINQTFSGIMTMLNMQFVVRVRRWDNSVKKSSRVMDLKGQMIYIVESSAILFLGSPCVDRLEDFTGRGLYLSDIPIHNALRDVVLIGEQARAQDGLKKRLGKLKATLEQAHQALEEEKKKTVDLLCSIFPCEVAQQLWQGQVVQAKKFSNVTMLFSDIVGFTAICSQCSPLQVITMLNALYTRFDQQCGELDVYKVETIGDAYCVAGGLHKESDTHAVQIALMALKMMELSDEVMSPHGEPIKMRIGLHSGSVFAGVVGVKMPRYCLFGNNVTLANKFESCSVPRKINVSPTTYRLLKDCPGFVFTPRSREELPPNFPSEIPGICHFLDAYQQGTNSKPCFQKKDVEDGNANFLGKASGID
Sequence (Q02153 whole entry): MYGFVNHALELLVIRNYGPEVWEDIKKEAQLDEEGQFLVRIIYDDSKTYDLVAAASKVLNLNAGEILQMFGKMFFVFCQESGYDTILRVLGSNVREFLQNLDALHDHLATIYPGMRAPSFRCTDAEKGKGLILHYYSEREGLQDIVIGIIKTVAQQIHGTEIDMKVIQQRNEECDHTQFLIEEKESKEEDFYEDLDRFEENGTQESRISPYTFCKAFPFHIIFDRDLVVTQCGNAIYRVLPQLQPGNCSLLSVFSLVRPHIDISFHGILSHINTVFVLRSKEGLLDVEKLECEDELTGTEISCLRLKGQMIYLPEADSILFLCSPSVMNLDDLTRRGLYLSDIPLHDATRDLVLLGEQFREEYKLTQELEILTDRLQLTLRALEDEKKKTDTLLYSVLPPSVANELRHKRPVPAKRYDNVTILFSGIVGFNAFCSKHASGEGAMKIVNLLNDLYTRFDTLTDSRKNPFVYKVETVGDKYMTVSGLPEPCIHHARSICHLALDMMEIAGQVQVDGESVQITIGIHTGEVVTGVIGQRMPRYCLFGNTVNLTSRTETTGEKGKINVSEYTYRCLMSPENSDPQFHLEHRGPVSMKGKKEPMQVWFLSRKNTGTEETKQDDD
Assay: Cell-based sGC Functional Assay (CASA Assay)
Settings: CHO-K1, activation as percentage of maximum cGMP production of Compound A (set to 100%); read-out: % Act.
Emax values by entry
Report the figure in % without appending any unit label.

# annotated cases, reported Emax shown
Molecule: CCCn1cc(C2(C)C(=O)Nc3nc(-c4nc(CCC(F)(F)C(F)(F)F)nc5c4cnn5C)nc(N)c32)nn1 (single isomer, unassigned)
Measure name: Emax
Experimental result: 169

Molecule: Cn1ncc2c(-c3nc(N)c4c(n3)NC(=O)C4(C)c3c[nH]nn3)nc(CCC(F)(F)C(F)(F)F)nc21 (single isomer, unassigned)
Measure name: Emax
Experimental result: 136

Molecule: CC(C)n1cc(C2(C)C(=O)Nc3nc(-c4nc(CCC(F)(F)C(F)(F)F)nc5c4cnn5C)nc(N)c32)nn1 (single isomer, unassigned)
Measure name: Emax
Experimental result: 126

Molecule: Cc1nnc(C2(C)C(=O)Nc3nc(-c4nc(CCC(F)(F)C(F)(F)F)nc5c4ccn5C)nc(N)c32)o1 (stereo not shown)
Measure name: Emax
Experimental result: 86

Query: Emax; subject: [2H]C([2H])([2H])n1ncc2c(-c3nc(N)c4c(n3)NC(=O)C4(c3nc(CC(C)(C)C(=O)O)cs3)C3CC3)nc(CCC(F)(F)C(F)(F)F)nc21 (stereo not shown)
80

Entry under review: Cn1ncc2c(-c3nc(N)c4c(n3)NC(=O)C4(C)c3cn(C4CCC4)nn3)nc(CCC(F)(F)C(F)(F)F)nc21 (single isomer, unassigned) . Reported Emax?
120

Return reported Emax; argument: [2H]C([2H])([2H])n1ncc2c(-c3nc(N)c4c(n3)NC(=O)C4(C)c3ncccn3)nc(CCC(F)(F)C(F)(F)F)nc21 (stereo not shown)
121

Dear colleague, I am looking for the recorded Emax of the following molecule: CCC1(c2cn(C(C)C)nn2)C(=O)Nc2nc(-c3nc(CCC(F)(F)C(F)(F)F)nc4c3cnn4C)nc(N)c21 (single isomer, unassigned)
133

If you can, please state the reported Emax value of Cn1ncc2c(-c3nc(N)c4c(n3)NC(=O)C4(C)c3cn(CC4CC4)nn3)nc(CCC(F)(F)C(F)(F)F)nc21 (stereo not shown) .
111
